Study Target: DHODH (Homo sapiens, UniProt Q02127)
Sequence (Q02127 whole entry): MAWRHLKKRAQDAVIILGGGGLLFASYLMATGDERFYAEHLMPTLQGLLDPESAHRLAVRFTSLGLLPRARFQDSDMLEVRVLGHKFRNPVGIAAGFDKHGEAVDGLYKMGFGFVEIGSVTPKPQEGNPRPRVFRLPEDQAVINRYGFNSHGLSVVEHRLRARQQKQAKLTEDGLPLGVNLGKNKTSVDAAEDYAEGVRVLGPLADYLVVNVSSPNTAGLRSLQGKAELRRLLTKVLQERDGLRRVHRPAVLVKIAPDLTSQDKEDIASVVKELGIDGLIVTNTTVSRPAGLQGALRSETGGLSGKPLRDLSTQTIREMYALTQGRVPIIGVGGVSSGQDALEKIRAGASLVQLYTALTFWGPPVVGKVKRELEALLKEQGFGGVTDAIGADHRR
Test Name: DHODH inhibition assay
Assay type: biochemical
Assay Context: lipophilic ligand efficiency from DHODH pIC50 (M) and cLogP
Range-based classes on measured LipE: low: < 2; medium: ≥ 2 and < 3; high: ≥ 3

Exercise: Which of the defined bands does the recorded LipE of Cc1c(-c2ccc(-c3ccccc3)cc2)nc2cnccc2c1C(=O)O sit within?
Key: high

Exercise: Which of the defined bands does the recorded LipE of Cc1c(-c2ccc(-c3ccccc3F)cc2)nc2cnc(C(F)(F)F)cc2c1C(=O)O sit within?
Key: medium

Exercise: Which of the defined bands does the recorded LipE of Cc1c(-c2ccc(-c3ccccc3F)cc2)nc2ccc(F)cc2c1C(=O)O sit within?
Key: medium

Exercise: Which of the defined bands does the recorded LipE of O=C(O)c1cc(-c2ccc(-c3cccnc3F)cc2)nc2ccccc12 sit within?
Key: low

Exercise: Which of the defined bands does the recorded LipE of Cc1c(-c2ccc(-c3cccnc3Cl)cc2)nc2cnccc2c1C(=O)O sit within?
Key: high

Exercise: Which of the defined bands does the recorded LipE of Cc1c(-c2ccc(-c3ccccc3)cc2)nc2cnc(C(F)(F)F)cc2c1C(=O)O sit within?
Key: medium

Exercise: Which of the defined bands does the recorded LipE of Cc1c(-c2ccc(-c3ccccc3)cc2)nc2ccncc2c1C(=O)O sit within?
Key: low

Exercise: Which of the defined bands does the recorded LipE of Cc1ccc(-c2ccc(-c3nc4cnccc4c(C(=O)O)c3C)cc2)c(Cl)n1 sit within?
Key: low

Exercise: Which of the defined bands does the recorded LipE of Cc1c(-c2ccc(-c3ccccc3)cc2)nc2ncccc2c1C(=O)O sit within?
Key: low

Exercise: Which of the defined bands does the recorded LipE of Cc1c(-c2ccc(-c3cccnc3Cl)cc2)nc2cnc(C(F)(F)F)cc2c1C(=O)O sit within?
Key: medium
